The values you see were collected from paper PMC5540273.

- Test system: PKN2;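 further: KINOMEscan kinase panel screen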
- condition-description: concentration: 1 μM, replicates: in singlicate; n = 1
readout: %Inh (%)

>>> reported_result("C[C@H]1CC[C@@H](C(=O)Nc2ccccc2)CN1c1cc(-c2ccc3c(N)n[nH]c3c2)nc(N)n1")
0
>>> reported_result("Nc1nc(-c2cccnc2)c(-c2ccnc3ccccc23)s1")
0
>>> reported_result("Cc1ccc(O)cc1Nc1cc(C(F)(F)F)nc2ccc(-c3ccncc3)cc12")
0
>>> reported_result("O=C(c1ccc(-c2cc(-c3c[nH]nc3-c3ccccn3)ccn2)cc1)N1CCCC1")
0
>>> reported_result("COc1cc2ncnc(Nc3ccc(OCc4ccccc4Br)c(Cl)c3)c2cc1OC.Cl")
0
>>> reported_result("CC(C)(C)OC(=O)NC1CCCN(c2cc(-c3ccc4c(N)n[nH]c4c3)nc(N)n2)C1 (centres unmarked)")
0
>>> reported_result("CCC(CC)(CC)n1cnc2c(N)ncnc21")
0
>>> reported_result("O=C(Nc1ccccc1F)NC1CCN(c2ccnc(Nc3ccc(F)cc3)n2)C1 (centres unmarked)")
0
>>> reported_result("CN1CCC(n2cnc(-c3ccc(F)cc3)c2-c2ccnc(NC3CCNCC3)n2)CC1")
25
>>> reported_result("Nc1n[nH]c2nnc(-c3ccccc3)cc12")
0
>>> reported_result("Clc1cccc(-c2nc(Nc3ccncc3)c3ccccc3n2)c1")
20
>>> reported_result("OCCOCCn1ccc2ncnc(Nc3ccc(Oc4cccc(Cl)c4)c(Cl)c3)c21")
0
>>> reported_result("Cc1cccc(-c2nc(Nc3ccc4[nH]nnc4c3)c3ccccc3n2)n1")
0
>>> reported_result("Clc1ccc(-c2cc(-c3c[nH]nc3-c3ccccn3)ccn2)cc1")
0
>>> reported_result("Cl.c1ccc(Cn2ncc3cc(Nc4ncnc5ccccc45)ccc32)cc1")
0
>>> reported_result("Fc1ccc(Nc2nccc(-c3c(-c4ccc(Cl)cc4)nn4ncccc34)n2)cc1F")
13
>>> reported_result("Nc1nc(-c2ccc3c(N)n[nH]c3c2)cc(N2CCCCC2)n1")
0
>>> reported_result("Clc1cc(Nc2ncnc3cc[nH]c23)ccc1OCc1ccccn1")
0
>>> reported_result("Cn1ccc2ncnc(Nc3ccc(Oc4cccc(Cl)c4)c(Cl)c3)c21")
0
>>> reported_result("CS(=O)(=O)CCNCc1ccc(-c2ccc3ncnc(Nc4ccc(OCc5ccccc5)c(Cl)c4)c3c2)o1.Cl")
8
>>> reported_result("O=C(NCCCN1CCCC1=O)c1cnc(NCc2cc(Cl)ccc2Cl)nc1NC1CCNCC1")
11
>>> reported_result("Cl.Fc1ccccc1COc1ccc(Nc2ncnc3ccc(-c4nnc(C(F)(F)F)o4)cc23)cc1Cl")
0
>>> reported_result("CSc1ccc(NC2=C(c3ccccc3Cl)C(=O)NC2=O)cc1")
0
>>> reported_result("COc1ccc(Nc2nccc(N3CCC(NC(=O)c4cccc(NC(C)=O)c4)C3)n2)cc1 (centres unmarked)")
0
>>> reported_result("CCCc1ccc(S(=O)(=O)NC2CCN(c3ccnc(Nc4ccc(OC)cc4)n3)C2)cc1 (centres unmarked)")
0
>>> reported_result("COc1ccc(NC(=O)Nc2ccc(C)c(-c3ccc(C(=O)Nc4ccncc4)cc3)c2)cc1")
0
>>> reported_result("COc1cc2c(Nc3cccc(NC(=O)c4ccccc4)c3)ncnc2cc1OCCCN1CCOCC1")
0
>>> reported_result("O=C(Nc1ccccc1)Nc1ccc(Oc2ccc3nccn3n2)cc1")
4
>>> reported_result("Cl.Cl.c1ccc(-c2cc3ccncc3cc2OC2CCNCC2)cc1")
19
